Molecular target: Low molecular weight phosphotyrosine protein phosphatase (Homo sapiens) (UniProt P24666)
Sequence (whole entry): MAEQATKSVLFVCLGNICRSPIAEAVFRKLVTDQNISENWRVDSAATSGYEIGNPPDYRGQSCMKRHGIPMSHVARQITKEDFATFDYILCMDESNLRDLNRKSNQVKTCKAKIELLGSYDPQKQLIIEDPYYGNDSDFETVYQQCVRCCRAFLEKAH
Assay: Inhibition of human cloned LMW-PTP isoform 1 expressed in Escherichia coli TB1 at 20 uM
recorded-metric: inhibition (%)

Example entries begin here.
structure_as_smiles=O=c1cc(-c2ccc(O)cc2)oc2cc(O)c(O)cc12 readout_units=% val=25
structure_as_smiles=Oc1ccc(-c2ccccc2)c(O)c1 readout_units=% val=0
structure_as_smiles=O=c1c(Cc2cccc(-c3ccc(O)c(O)c3)c2)c(-c2ccc(O)cc2)oc2cc(O)ccc12 readout_units=% val=60

[I] Oc1ccc(-c2ccccc2)cc1O
[II] O=C(O)c1ccc(-c2cccc(Cc3c(-c4ccc(O)cc4)oc4cc(O)ccc4c3=O)c2)cc1O
Lab notebook, comparison: I versus II , higher inhibition goes to which? Please respond with the label that marks your chosen entry.
II

###

Target: Tyrosine-protein phosphatase non-receptor type 1 (Homo sapiens, UniProt P18031)
Assay: Inhibition of human cloned PTP1B expressed in Escherichia coli TB1
recorded-metric: IC50 (µM)

Use the examples below as a reference point.
structure_as_smiles=O=c1c(Cc2ccc(-c3ccc(O)c(O)c3)cc2)c(-c2ccc(O)cc2)oc2ccccc12 recorded_metric=IC50 val=5
structure_as_smiles=O=C(O)c1ccc(-c2ccc(Cc3c(-c4ccc(O)cc4)oc4ccccc4c3=O)cc2)cc1O recorded_metric=IC50 val=0.9
structure_as_smiles=O=c1c(Cc2ccc(-c3ccc(O)cc3)cc2)c(-c2ccc(O)cc2)oc2cc(O)ccc12 recorded_metric=IC50 val=17
structure_as_smiles=O=c1c(Cc2ccc(-c3ccc(O)c(O)c3)cc2)c(-c2ccc(O)cc2)oc2cc(O)ccc12 recorded_metric=IC50 val=7.7
structure_as_smiles=O=C(O)c1cccc(-c2ccc(Cc3c(-c4ccc(O)cc4)oc4cc(O)ccc4c3=O)cc2)c1 recorded_metric=IC50 val=6.2

[a] O=c1c(Cc2ccc(-c3ccccc3)cc2)c(-c2ccc(O)cc2)oc2cc(O)c(O)cc12
[b] O=C(O)c1ccc(-c2ccc(Cc3c(-c4ccc(O)cc4)oc4cc(O)ccc4c3=O)cc2)cc1O
Which of the two items, a and b , has the greater recorded IC50? Provide the label of your selected option as the answer.
a
(a: 2 µM, b: 1 µM)

###

Target: Low molecular weight phosphotyrosine protein phosphatase (Homo sapiens, UniProt P24666)
Test: Inhibition of human cloned LMW-PTP isoform 1 expressed in Escherichia coli TB1 by competitive inhibition assay
recorded-metric: Ki (nM)
Response body: numeric value in nM, unit text excluded.

Entry O=c1c(Cc2ccc(-c3ccccc3)cc2)c(-c2ccc(O)cc2)oc2cc(O)c(O)cc12 : reported Ki = ?
270

###

Target: Low molecular weight phosphotyrosine protein phosphatase (Homo sapiens, UniProt P24666)
Assay: Inhibition of human cloned LMW-PTP isoform 1 expressed in Escherichia coli TB1
pIC50: −log10 of the molar value.
recorded-metric: pIC50

Consider the worked cases shown below.
structure_as_smiles=O=c1c(Cc2ccc(-c3ccc(O)c(O)c3)cc2)c(-c2ccc(O)cc2)oc2ccccc12 recorded_metric=pIC50 val=4.84
structure_as_smiles=O=C(O)c1ccc(-c2ccc(Cc3c(-c4ccc(O)cc4)oc4cc(O)ccc4c3=O)cc2)cc1O recorded_metric=pIC50 val=5.89
structure_as_smiles=O=C(O)c1ccc(-c2ccc(Cc3c(-c4ccc(O)cc4)oc4ccccc4c3=O)cc2)cc1O recorded_metric=pIC50 val=6.15
structure_as_smiles=O=c1c(Cc2ccc(-c3ccc(O)c(O)c3)cc2)c(-c2ccc(O)cc2)oc2cc(O)ccc12 recorded_metric=pIC50 val=5.13
structure_as_smiles=O=c1c(Cc2ccc(-c3ccccc3)cc2)c(Cc2ccc(O)cc2)oc2cc(O)ccc12 recorded_metric=pIC50 val=5.28

[I] O=c1c(Cc2ccc(-c3ccccc3)cc2)c(-c2ccc(O)cc2)oc2cc(O)ccc12
[II] O=C(O)c1cccc(-c2ccc(Cc3c(-c4ccc(O)cc4)oc4cc(O)ccc4c3=O)cc2)c1
[III] O=c1c(Cc2ccc(-c3ccccc3)cc2)c(-c2ccc(O)cc2)oc2cc(O)c(O)cc12
Sort ascending by pIC50. Put the labels in the requested order and list them out.
II, I, III
(II: 4.94, I: 5.24, III: 5.96)

###

Biological target: UniProt:P18031
Experiment: Inhibition of human cloned PTP1B expressed in Escherichia coli TB1 at 15 uM
recorded-metric: inhibition (%)

Illustrative cases are given below, each with its answer.
structure_as_smiles=O=c1c(Cc2ccccc2)c(Cc2ccc(O)cc2)oc2cc(O)ccc12 val=0
structure_as_smiles=O=c1c(Cc2ccc(-c3ccccc3)cc2)c(CCc2ccc(O)cc2)oc2cc(O)ccc12 val=20
structure_as_smiles=O=c1cc(Cc2ccc(O)cc2)oc2cc(O)ccc12 val=0

[A] O=c1c(Cc2ccc(-c3ccccc3)cc2)c(CCCc2ccc(O)cc2)oc2cc(O)ccc12
[B] O=c1c(Cc2ccc(-c3ccccc3)cc2)c(Cc2ccc(O)cc2)oc2cc(O)ccc12
[C] O=c1c(Cc2ccc(-c3ccccc3)cc2)c(Cc2ccc(O)cc2)oc2ccc(O)cc12
[D] O=c1c(Cc2ccc(-c3ccccc3)cc2)c(-c2ccc(O)cc2)oc2cc(O)ccc12
// smallest inhibition at index 0, largest at the end Would you mind listing the labels in the order requested?
A, D, B, C

###

Biological target: Low molecular weight phosphotyrosine protein phosphatase (Homo sapiens, UniProt P24666)
Assay: Inhibition of human cloned LMW-PTP isoform 2 expressed in Escherichia coli TB1 by mixed type inhibition assay
pKi: −log10 of the molar value.
recorded-metric: pKi

[P] O=c1c(Cc2ccc(-c3ccc(O)c(O)c3)cc2)c(-c2ccc(O)cc2)oc2cc(O)ccc12
[Q] O=c1c(Cc2ccc(-c3ccccc3)cc2)c(-c2ccc(O)cc2)oc2cc(O)ccc12
Which of the two gives a bigger number for pKi: P or Q ? Write down the label attached to your selection.
P
(P: 5.57, Q: 5.11)

###

Target: Low molecular weight phosphotyrosine protein phosphatase (Homo sapiens)
Sequence (P24666 whole entry): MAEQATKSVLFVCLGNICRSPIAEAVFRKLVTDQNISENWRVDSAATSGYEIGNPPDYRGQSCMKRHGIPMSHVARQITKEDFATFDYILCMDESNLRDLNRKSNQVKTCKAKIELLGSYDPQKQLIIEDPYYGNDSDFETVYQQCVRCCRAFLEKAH
Assay: Inhibition of human cloned LMW-PTP isoform 1 expressed in Escherichia coli TB1 by mixed type inhibition assay
pKi: −log10 of the molar value.
recorded-metric: pKi

structure_as_smiles=O=c1c(Cc2ccc(-c3ccccc3)cc2)c(-c2ccc(O)cc2)oc2cc(O)ccc12 recorded_metric=pKi val=5.60
structure_as_smiles=O=c1c(Cc2ccc(-c3ccc(O)c(O)c3)cc2)c(-c2ccc(O)cc2)oc2cc(O)ccc12 recorded_metric=pKi val=5.65

###

Target: Low molecular weight phosphotyrosine protein phosphatase (Homo sapiens, UniProt P24666)
Assay: Inhibition of human cloned LMW-PTP isoform 2 expressed in Escherichia coli TB1
recorded-metric: IC50 (µM)

Completed entries (count: 5):
structure_as_smiles=O=c1c(Cc2ccc(-c3ccc(O)c(O)c3)cc2)c(-c2ccc(O)cc2)oc2cc(O)ccc12 readout_units=µM val=12.4
structure_as_smiles=O=c1c(Cc2ccc(-c3ccccc3)cc2)c(-c2ccc(O)cc2)oc2cc(O)ccc12 readout_units=µM val=13.9
structure_as_smiles=O=c1c(Cc2ccc(-c3ccccc3)cc2)c(CCc2ccc(O)cc2)oc2cc(O)ccc12 readout_units=µM val=17.3
structure_as_smiles=O=C(O)c1cccc(-c2ccc(Cc3c(-c4ccc(O)cc4)oc4cc(O)ccc4c3=O)cc2)c1 readout_units=µM val=26.8
structure_as_smiles=O=c1c(Cc2ccc(-c3ccccc3)cc2)c(Cc2ccc(O)cc2)oc2ccc(O)cc12 readout_units=µM val=17.2

[A] O=C(O)c1ccc(-c2ccc(Cc3c(-c4ccc(O)cc4)oc4ccccc4c3=O)cc2)cc1O
[B] O=c1c(Cc2ccc(-c3ccccc3)cc2)c(-c2ccc(O)cc2)oc2cc(O)c(O)cc12
Which record shows the lower IC50: the first, A , or the second, B ? Write down the label attached to your selection.
B

[P] O=c1c(Cc2ccc(-c3ccc(O)c(O)c3)cc2)c(-c2ccc(O)cc2)oc2ccccc12
[Q] O=C(O)c1ccc(-c2ccc(Cc3c(-c4ccc(O)cc4)oc4cc(O)ccc4c3=O)cc2)cc1O
Out of P and Q , name the one with the higher IC50. Field: selected label. Fill in the label of the entry you choose.
P

###

Molecular target: Tyrosine-protein phosphatase non-receptor type 1 (Homo sapiens)
Sequence (whole entry): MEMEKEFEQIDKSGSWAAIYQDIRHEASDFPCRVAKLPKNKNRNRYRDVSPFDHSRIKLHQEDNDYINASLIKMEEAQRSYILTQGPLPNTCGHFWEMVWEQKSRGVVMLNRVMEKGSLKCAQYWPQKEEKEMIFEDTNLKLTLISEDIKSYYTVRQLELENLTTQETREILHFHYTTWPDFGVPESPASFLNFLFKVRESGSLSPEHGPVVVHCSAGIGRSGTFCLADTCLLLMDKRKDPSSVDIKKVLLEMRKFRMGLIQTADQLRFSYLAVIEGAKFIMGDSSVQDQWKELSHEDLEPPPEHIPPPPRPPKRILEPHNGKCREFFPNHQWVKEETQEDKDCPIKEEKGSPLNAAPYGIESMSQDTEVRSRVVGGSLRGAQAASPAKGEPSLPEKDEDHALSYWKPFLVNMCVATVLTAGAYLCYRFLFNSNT
Assay: Inhibition of human cloned PTP1B expressed in Escherichia coli TB1 at 20 uM
recorded-metric: inhibition (%)

[a] O=c1cc(-c2ccc(O)cc2)oc2cc(O)c(O)cc12
[b] Oc1ccc(-c2ccccc2)cc1O
Could you point out whether the larger inhibition belongs to a or to b ? Lab note: record the label of whichever item you select.
b
(b: 20%, a: 10%)
